Reported viability by item:
assay: growth inhibitors of H69AR lung tumor, primary screen, human, duplicate replicates (AID 580); conditions: H69AR lung tumor cells viability, ATP luminescence, 72 h; at 10 µM; hits give low values;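 note: 100% = mean luminescence of untreated wells and 0% = no signal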
Activity calls are given as the source filed them.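 Rule for the calls: active = viability at or under a set limit in both replicates, limit being median viability minus 3 SD (cut at about 48% in these data, passing the limit was not always enough); inconclusive = at or under the limit in just one replicate; inactive = at or above the limit in both replicates.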
endpoint: viability

> print(dat)
                                   compound   endpoint  experimental.result
1  CCOC(=O)C1CCN(c2nc3ccccc3nc2C(C#N)C(=O)OC(C)C)CC1 (stereo unspecified)  viability     84.2% (inactive)
2  COc1ccc2nc(S(=O)Cc3ncc(C)c(OC)c3C)[nH]c2c1 (stereo unspecified)  viability     80.8% (inactive)
3  CCCCOc1ccc(S(=O)(=O)n2c(C)nc3ccccc32)cc1  viability     87.1% (inactive)
4  N#Cc1c(N)n(CCOC(=O)c2cccc(Br)c2)c2nc3ccccc3nc12  viability     96.4% (inactive)
5         Cc1ccc2nc(C(F)(F)F)c(C#N)c(N)c2c1  viability     71.3% (inactive)
6         Cc1cc(C)c2oc(=O)cc(CN3CCOCC3)c2c1  viability     91.4% (inactive)

From: PubChem BioAssay
